The reported numbers originate from PubChem BioAssay (NCI).

System: ACHN renal
Assay: NCI tumour cell line growth inhibition, 48 h
measured_metric: TGI (µM)
Express it in µM; write the number only.

// solved cases for TGI follow
{"compound": "COc1c(O)cc2c(c1O)C(=O)/C(=C/c1ccc(O)cc1)CO2", "result_unit": "µM", "TGI": 48.3}
{"compound": "Cc1cn2c(/C=N/N=C(N)N)c(-c3cccs3)nc2s1", "result_unit": "µM", "TGI": 5}

Entry COC1=CC(=O)C2C(C1=O)C(c1ccccc1)[C@H]2C (stereo partly specified) has what TGI?
68.5

---

Test system: SF-268 CNS
Experiment: NCI tumour cell line growth inhibition, 48 h
measured_metric: TGI

{"compound": "O=[N+]([O-])C1Cc2ccccc2OC1c1ccccc1 (stereo unspecified)", "measured_metric": "TGI", "test_result": "> 100 µM"}

Param item = CC(=O)OCC1OC(Oc2cc(C)c(O)cc2C/C=C(\C)CC/C=C(\C)CC(=O)CC(C)C)C(O)C(OC(C)=O)C1OC(C)=O (stereo unspecified) ; retrieve measured TGI.
> 50 µM

So what's the measured TGI for this one? "COc1ccc(N2C=Nn3c(nc4sc5c(c4c3=O)CCCC5)C2)cc1"
> 100 µM

Reported TGI, compound "N#CC1=C(N)NC(N2CCOCC2)=NC12Nc1ccccc1N2" : ____
51.1 µM

Look at this compound and give its reported TGI. C=CCO[C@]1(CC=C)C(=O)C(=O)OC1C1COC(C)(C)O1 (stereo partly specified)
> 100 µM

Any idea what TGI was measured for "O=C(CNc1ccccc1[N+](=O)[O-])Nn1c(-c2ccccc2)nc2ccccc2c1=O" ?
> 100 µM

Would you kindly share the measured TGI for "O=S(=O)(/N=C(\NO)Nc1ccc(Cl)cc1)c1cccc2nsnc12" ?
> 100 µM

Request the reported TGI associated with "CCN(CC)CCNC(=O)c1cn2c(ccc3sc4ccccc4c(=O)c32)n1"
24.8 µM

Which TGI is reported for this compound? "CN(C)C(=O)OC(Cn1cncn1)(Cn1cncn1)c1ccc(Cl)cc1Cl"
> 100 µM

Item CCOP(=O)(OCC)C(C#N)Cc1ccco1 (stereo unspecified) has what recorded TGI?
> 10 µM

Need TGI of CC(=O)OC1COC(Nc2nc(NCc3ccccc3)n(C)c(=O)c2N=O)C(OC(C)=O)C1OC(C)=O (stereo unspecified) , thanks.
> 10 µM

Given the compound "CC(=O)[CH-]C(=O)c1ccccc1.CC(=O)[CH-]C(=O)c1ccccc1.CCOCC[O-].CCOCC[O-].[Ti+4]" , what is its reported TGI?
34.8 µM

Please report the recorded TGI for CCOC(=O)CC1(c2cccc3ccccc23)OC(=O)c2ccccc21 (stereo unspecified) .
> 100 µM

Sample "COC(=O)[C@H](Cc1c[nH]c2ccccc12)NC(=O)c1ccc(CNC(=O)/C=C/c2cccc(Oc3ccccc3)c2)cc1" — what was its TGI?
> 100 µM

What value of TGI has been reported for the following compound? CCCC(CCC)C(=O)OCC1(CO)C/C(=C\c2ccc(F)cc2)C(=O)O1 (stereo unspecified)
26.7 µM

Any idea what its TGI is? The compound is "O=c1[nH]nc(Cc2ccccc2)n1CCO"
> 100 µM

Requested field: TGI. Item: COc1ccc(C2SCC(=O)N2NC(=O)c2ccc(NC(C)=O)cc2)cc1 (stereo unspecified)
> 100 µM

Entry O=C(Nc1cccc(O)c1)C(=O)C(C(=O)c1ccc(Cl)c(Cl)c1)C1OC(=O)c2ccccc21 (stereo unspecified) : reported TGI = ?
33.7 µM
